Measured yeast fitness, listed per entry.
B1: tRNA (parent)
chain: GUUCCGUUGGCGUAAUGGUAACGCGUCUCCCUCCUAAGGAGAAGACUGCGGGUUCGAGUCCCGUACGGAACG

Variants of: B1
MEASUREMENT DESCRIPTION: yeast fitness relative to wild type (ratio to wild type); higher = fitter; tRNA-Arg(CCU), competitive growth, 37 C, YPD
Variants at the floor of the assay were thinned out.

Guide cases for yeast fitness, answers given:
>  <SEQUENCE TEXT>
GUUCCGUUGGCGUAAUAGUAAGGCGUCACCGUCCUAAGGAGAAGACUGCGGGUUAGAGUCCCGUACGCAACG [G17A C22G U28A C31G C55A G68C]

>  <ENDPOINT VALUE>
≤ 0.5

$$$$
>  <SEQUENCE TEXT>
GUUCGGUUGGUGUAAUGGUAACGCGUCUCCCUCCUAAGGAGUAGACUGCGGGUUCGAGUCCCGUACGAAACG [C5G C11U A42U G68A]

>  <ENDPOINT VALUE>
≤ 0.5

$$$$
>  <SEQUENCE TEXT>
GUUCCGAUGGCGUAAUGGUCACGCAUCUCCCUCCUAAGGAGAAGACUGCGGGUUCGAGUCCCGUACGCAACG [U7A A20C G25A G68C]

>  <ENDPOINT VALUE>
≤ 0.5

$$$$

GET /value?item= GUUCCGUUGGCGUAAUGGUAACGCGUCUCCUUCCUAAGGAGAAGACUGCGGGUUCGGGUCCCGUAUGGAACG [C31U A57G C66U] &field=yeast fitness returns 0.583

GET /value?item= GUUCCGUUGCCGUAAUGGUAACGGGUCUCCCUCCUAAGGAGAAGAUUGCGGGUUCGAGUCCCGUACGGUACG [G10C C24G C46U A69U] &field=yeast fitness returns 0.569
